target-or-system: human PDHK2 (hPDHK2) (Homo sapiens (Human), UniProt Q15119)
test-method-notes: Inhibitory action of PDHK2 activity in vitro (residual PDH activity after PDHK reaction)
assay-conditions: PDH/hPDHK2 complex solution, PDHK reaction at room temperature for 45 min, NADH absorbance at 340 nm; read-out: kPDK2 IC50
measure-name: pIC50
pIC50 here: minus log base 10 of the concentration, concentration in moles per litre.

**Query** # value lookup — system human PDHK2 (hPDHK2) (Homo sapiens (Human), UniProt Q15119), readout pIC50, item C[C@H]1CN(C(=O)c2cncc(-c3ccc(C#N)cc3F)c2)Cc2cnc([C@@](C)(O)C(F)(F)F)n21 [Example 71]
**Result** 8.15

**Query** Lab note: need pIC50 for C[C@H]1CN(C(=O)c2ccc(C#N)c(-n3cc(Cl)cn3)c2)Cc2cnc([C@@](C)(O)C(F)(F)F)n21 [Example 85] on human PDHK2 (hPDHK2) (Homo sapiens (Human), UniProt Q15119), anyone have it?
**Result** 8.22

**Query** Look up pIC50 with human PDHK2 (hPDHK2) (Homo sapiens (Human), UniProt Q15119) for this compound: C[C@H]1CN(C(=O)c2ccc(F)c(-c3ccnn3C)c2)Cc2cnc([C@@](C)(O)C(F)(F)F)n21 [Example 64]
**Result** 8.15
